Origin of the recorded values: PubChem BioAssay (NCI)

Tested on: OVCAR-8 ovarian
Assay: NCI-60 one-dose screen, 48 h (100 = growth as untreated, 0 = no growth, -100 = all killed)
Conditions: 10 µM unless noted
The panel holds about 83,000 compounds, 20% with a hit somewhere; the sample as a whole holds those more often.
Please use label 1 for growth under 20% and label 0 for everything else, ties included.

Record excerpt, results attached:
| Molecule | Assigned Class |
| --- | --- |
| C#CCn1cc(/C=N/Nc2nc(-c3ccc(Br)cc3)cs2)c2ccccc21 | label 0 |
| CCN(CC)S(=O)(=O)c1ccc(-c2nc(C(Cl)Cl)nc3cc(C)nn23)cc1 | label 1 |
| NCCNC(=O)c1cccc(COc2ccccc2NC(=O)c2cc(Br)c(Br)[nH]2)c1 | label 0 |

Is growth strictly under 20% for the entry Cc1ccc(N2CCN(C3=C(Cl)C(=O)c4ncccc4C3=O)CC2)cc1 ?
label 0

Is growth strictly under 20% for the entry C#CCN(C)CCCOc1ccc(NC(=O)CCCCCCC(=O)NO)cc1Cl ?
label 1

Is growth strictly under 20% for the entry CCCCCN1C(=O)/C(=c2\sc3n(c2=O)C2C(NN=3)N(CC)C(=O)N2CC)c2cccc(C)c21 (centres undefined) ?
label 0

Is growth strictly under 20% for the entry CN1CCN(Cc2ccc(NC(=O)c3cncc(C#Cc4cnc5ccc(N)nn45)c3)cc2C(F)(F)F)CC1 ?
label 1

Is growth strictly under 20% for the entry CCNCCOc1ccc(/C(=C(/CC)c2ccc(Cl)cc2)c2ccc(OCCCN(C)C)cc2)cc1 ?
label 1

Is growth strictly under 20% for the entry CN1CC[C@@H]2[C@@]3(C)CC[C@H](O)C(C)(C)[C@@H]3CC[C@@]2(C)[C@]2(C)CC[C@@]3(CO)CCC(C)(C)C[C@@H]3C12 (some centres undefined) ?
label 0
